Test: PAX8 transcriptional activity inhibition in RMG-I – RMG-I cells, luciferase, single concentration, primary screen (AID 652154);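 further: luciferase light reporting Pax8 driven TPO promoter activity; plate controls were median of neutral control wells for no effect and mitoxantrone controls for full effect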
Settings: RMG-I TPO-luciferase reporter, SteadyGlo, 24 h; at 12.6 µM
Screen size: about 360,000 compounds; about 4,200 (1.2%) were called active.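 How the source made its calls: active means mean replicate inhibition at least 60% with every replicate also reaching 60%; inconclusive means only one of the two criteria is met; inactive means mean below 60% and not all replicates reaching 60%.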 Many of the other results were omitted from the sample, so actives are more common in it than they were.
Result category, one only: T (active), F (inactive)

Take a look at these entries with their results.
O=C(c1cccc(F)c1)N1CCCCN2[C@H](CO)[C@@H](c3ccc(-c4cncnc4)cc3)[C@H]2C1 | F
C[C@@H]1CN([C@H](C)CO)C(=O)c2cc(C#CCN(C)C)cnc2O[C@H]1CN(C)C(=O)Cc1ccncc1 | F
COc1ccc(N2CCN(S(=O)(=O)c3ccc4c(c3)N(C(C)=O)CCO4)CC2)cc1 | F
CC(=O)N1[C@@H](CO)[C@@H](c2ccccc2)[C@@H]1CN(C)C(=O)CN1CCOCC1 | F
O=C(C[C@@H]1CC[C@@H]2[C@H](COC[C@@H](O)CN2Cc2cc(F)cc(F)c2)O1)NCc1cccc(F)c1 | F

Req: Give the logged outcome of this assay for the following compound: `C=CCn1c(COc2cccc3cccnc23)nnc1SCC(=O)OC`
Resp: F

Req: Write down the call the test reported for this compound. Item: `C[C@@H]1CCCCO[C@H](CN(C)S(=O)(=O)c2ccc(Cl)cc2)[C@H](C)CN([C@@H](C)CO)C(=O)c2cc(NS(=O)(=O)c3cccs3)ccc2O1`
Resp: F

---

Experiment: PAX8 transcriptional activity inhibition in RMG-I – RMG-I cells, luciferase, single concentration, primary screen (AID 652154)
Conditions: RMG-I TPO-luciferase reporter, SteadyGlo, 24 h; at 12.6 µM; stronger effect = higher value
About 4,200 (1.2%) of roughly 360,000 compounds were called active. The sample as a whole holds a higher share of actives than the screen did.
Quantity Kind: inhibition (%)
Give bare numbers, in %.

Some compounds with known inhibition results, for comparison:
O=C([C@H]1[C@H](CO)[C@H]2Cn3c(ccc(C4=CCCC4)c3=O)[C@@H]1N2C(=O)c1ccncc1)N1CCCCC1 | 0.28
CO[C@@H]1CC[C@H]2CCOc3c(C#N)cccc3C(=O)N(C)C[C@@H](OC)[C@H](C)C(=O)N(C)C[C@@H]1O2 | -5.56

Could you tell me inhibition for each of these compounds? They are listed below.
1. C[C@@H]1CN([C@@H](C)CO)C(=O)c2cc(NC(=O)CCN3CCOCC3)ccc2O[C@H]1CN(C)C(=O)NC1CCCCC1
2. Cc1ccc(-c2cnc3c(c2)C(=O)N([C@H](C)CO)C[C@H](C)[C@@H](CN(C)C(=O)c2cccc(F)c2)O3)cc1

Resp:
[-13.4, 6.03]

For each of the items listed, what is its inhibition?
1. COc1ccc(-c2csc3ncnc(N4CCN(S(=O)(=O)c5ccccc5C#N)CC4)c23)cc1
2. C[C@@H]1CN([C@H](C)CO)C(=O)c2cc(NC(=O)CCCN(C)C)ccc2O[C@@H](C)CCCCO[C@H]1CN(C)CC1CCCCC1
3. COc1cccc(CN(C)C[C@H]2OCc3ccccc3-c3c(n(C)c4ccccc34)C(=O)N([C@@H](C)CO)C[C@@H]2C)c1
4. C[C@@H]1CN([C@H](C)CO)C(=O)c2cc(NS(=O)(=O)c3cccs3)ccc2O[C@@H](C)CCCCO[C@H]1CN(C)Cc1ccc(C(F)(F)F)cc1
5. CCCNC(=O)Nc1ccc2c(c1)C(=O)N(C)[C@@H]1CC[C@@H](CC(=O)NC)O[C@H]1CO2

Resp:
1. 9.25
2. -3.49
3. 11
4. 96.8
5. -19.9

Consider the following items and state reported inhibition for each.
1. Cc1ccc(S(=O)(=O)Nc2ccc3c(c2)C(=O)N([C@H](C)CO)C[C@@H](C)[C@H](CN(C)C(=O)Nc2ccc(C(F)(F)F)cc2)OCCCC[C@H](C)O3)cc1
2. Cc1ccc(S(=O)(=O)Nc2ccc3c(c2)C(=O)N([C@@H](C)CO)C[C@@H](C)[C@H](CN(C)CC2CC2)O3)cc1
3. COc1ccc(NC(=O)Nc2ccc3c(c2)C(=O)N([C@H](C)CO)C[C@H](C)[C@H](CN(C)S(=O)(=O)c2ccc(Cl)cc2)OCCCC[C@H](C)O3)cc1

Resp:
1: 54.1; 2: -3.68; 3: 26.6

---

Assay: PAX8 transcriptional activity inhibition in RMG-I – RMG-I cells, luciferase, single concentration, primary screen (AID 652154);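 further: luciferase light reporting Pax8 driven TPO promoter activity; plate controls were median of neutral control wells for no effect and mitoxantrone controls for full effect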
Details: RMG-I TPO-luciferase reporter, SteadyGlo, 24 h; at 12.6 µM; stronger effect = higher value
Hit rate of the full screen: of about 360,000 compounds, about 4,200 (1.2%) were called active. What follows is part of a selection rich in actives, with near analogues and random picks from the rest.
Class assignment keyed on inhibition, ranges low class: < -50%; middle class: ≥ -50% and < 70%; high class: ≥ 70%

Cc1ccc(-c2nc3ccc(Br)cn3c2Cc2ccccc2C(F)(F)F)cc1 | low class
CC(=O)Nc1ccc2c(c1)C(=O)N(C)[C@@H]1CC[C@@H](CC(=O)NCC3CCCCC3)O[C@@H]1CO2 | middle class

Req: Bin this entry: `C[C@@H]1CN([C@@H](C)CO)C(=O)c2cccc(NC(=O)CCCCCC(=O)Nc3ccccc3N)c2O[C@H]1CN(C)C(=O)Nc1ccccc1`
Resp: middle class

Req: Exam item: assign `C[C@@H]1CN([C@H](C)CO)C(=O)Cc2cc(NC(=O)Nc3ccccc3)ccc2O[C@H]1CN(C)Cc1ccc(Cl)c(Cl)c1` to the correct category.
Resp: middle class

Req: Which bin should I file `Cc1ccc2nc(-c3ccc(Br)cc3)cn2c1` under?
Resp: high class

Req: Could you tell me which band `COc1ccc(-c2nc3ccc(Br)cn3c2Cc2ccc(C)cc2)cc1OC` belongs to?
Resp: low class

Req: Into which category would you place `Cc1ccc(-c2nc3ccc(Cl)cn3c2Cc2ccccc2)cc1` ?
Resp: low class

Req: Which class does `Cc1ccc(-c2cn3cc(C)ccc3n2)cc1` fall in?
Resp: high class

---

Experiment: PAX8 transcriptional activity inhibition in RMG-I – RMG-I cells, luciferase, single concentration, primary screen (AID 652154);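 further: luciferase light reporting Pax8 driven TPO promoter activity; plate controls were median of neutral control wells for no effect and mitoxantrone controls for full effect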
Conditions: RMG-I TPO-luciferase reporter, SteadyGlo, 24 h; at 12.6 µM; stronger effect = higher value
Among all 360,000 compounds or so, about 4,200 (1.2%) were called active. The sample as a whole holds a higher share of actives than the screen did.
Quantity Kind: inhibition (%)
Answers are plain numbers, in %.

Observe how each entry below is paired with its result.
C/C(CC1CC(C)(C)OC1=O)=N/Nc1nc(-c2ccccc2)cs1 (centres undefined) | 19.2
O=C(OCC(=O)N1CCN(C(=O)c2ccco2)CC1)c1c(Cl)cccc1Cl | -6.1
O=C(C1CCOCC1)N1C[C@H]2[C@@H](c3ccccc31)[C@@H](CO)N2Cc1ccccc1F | -11.6
CCCN1C[C@@H](C)[C@@H](OC)CN(C)C(=O)c2ccc(NC(=O)c3ccc(F)cc3)cc2OC[C@@H]1C | -1.32

Parameter requested: inhibition. Apply to each item below.
1. C[C@H]1CN([C@@H](C)CO)C(=O)Cc2cc(NC(=O)Nc3cccc4ccccc34)ccc2O[C@@H]1CN(C)C
2. Cc1ccccc1-c1n[nH]c(=S)n1/N=C/c1ccc(-c2ccccc2Br)o1
3. CCOc1cc(C(=O)N2CCc3cc(OC)c(OC)cc3C2)ccc1OC(F)F
4. Cc1noc(/C=C/N(C)C)c1S(=O)(=O)N1CCCC(C(=O)NCc2ccco2)C1 (centres undefined)
5. Cc1noc(/C=C/c2ccco2)c1S(=O)(=O)N1CCC(C(=O)Nc2ccc(Cl)cn2)CC1
6. Cc1cc(-c2n[nH]c(=S)n2/N=C/C(Br)=C/c2ccccc2)n[nH]1

Resp:
-5.56
-5.71
86.2
38.6
74.4
94

---

Assay: PAX8 transcriptional activity inhibition in RMG-I – RMG-I cells, luciferase, single concentration, primary screen (AID 652154);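 further: luciferase light reporting Pax8 driven TPO promoter activity; plate controls were median of neutral control wells for no effect and mitoxantrone controls for full effect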
Conditions: RMG-I TPO-luciferase reporter, SteadyGlo, 24 h; at 12.6 µM
Screen size: about 360,000 compounds; about 4,200 (1.2%) were called active.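 The calls were made as follows: active = mean replicate inhibition at least 60% with every replicate also reaching 60%; inconclusive = only one of the two criteria is met; inactive = mean below 60% and not all replicates reaching 60%.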 Many of the other results were omitted from the sample, so actives are more common in it than they were.
Your reply should match one of these outcome classes. true (1) for active, false (0) for inactive

Worked cases, answers included:
COc1ccc(C#Cc2ccc([C@@H]3[C@H](CO)N4C(=O)CN(C(C)=O)C[C@@H]34)cc2)cc1 | false (0)
COc1cccc(S(=O)(=O)N(C)C[C@@H]2Oc3cc(C4=CCCCC4)ccc3S(=O)(=O)N([C@H](C)CO)C[C@H]2C)c1 | true (1)
COc1ccc2c3c([nH]c2c1)[C@H](CO)N(C(=O)C1CCCCC1)CC31CCN(C(=O)c2ccncc2)CC1 | false (0)
COc1cccc(CNC(=O)C[C@H]2CC[C@@H](NC(=O)C3CCC3)[C@@H](CO)O2)c1 | false (0)
COc1ccc(C(C#N)=C2C=CC(=NO)c3ccccc32)cc1 | true (1)

Req: Hi, do you know how `COc1ccc2[nH]c(C(=O)N/N=C/c3cc(OC)c(OC)c(OC)c3)cc2c1` came out in this test?
Resp: true (1)

Req: Please indicate how the test categorized `C[C@H](CO)N1C[C@H](C)[C@@H](CN(C)S(=O)(=O)c2cccc(F)c2)Oc2cc(C#CCN(C)C)ccc2S1(=O)=O` .
Resp: false (0)

Req: GET /call?item= `N#C[C@@H]1N[C@@H](CO)[C@@H]1c1ccc(C#Cc2ccccc2F)cc1` returns the recorded outcome of this test.
Resp: false (0)

Req: Any idea what this test logged for `Cn1cnc(CCNC(=O)C[C@H]2CC[C@H]3[C@@H](COC[C@@H](O)CN3C(=O)Nc3ccc(C(F)(F)F)cc3)O2)c1` ?
Resp: false (0)

Req: I would be grateful if you could indicate the recorded call for `O=C(O)C(=Cc1ccc([N+](=O)[O-])cc1)CCc1ccccc1` .
Resp: false (0)

Req: Please state the recorded outcome for this compound: `Cc1cc(C)n2nc(CNS(=O)(=O)c3c(F)c(F)c(F)c(F)c3F)nc2n1`
Resp: true (1)

Req: Just curious, what result did `Cc1noc(C)c1S(=O)(=O)Nc1ccc2c(c1)C(=O)N([C@H](C)CO)C[C@@H](C)[C@@H](CN(C)Cc1ccccc1)OCCCC[C@@H](C)O2` get here?
Resp: false (0)

Req: Called result for `CCCC#Cc1ccc2c(c1)O[C@@H](CN(C)S(=O)(=O)c1cccc(OC)c1)[C@H](C)CN([C@@H](C)CO)S2(=O)=O`
Resp: true (1)

Req: Write down the call the test reported for this compound. Item: `CS(=O)(=O)N1CC(=O)N2[C@@H](CO)[C@@H](c3ccc(C#CCC4CCCC4)cc3)[C@@H]2C1`
Resp: false (0)

Req: Field: outcome | Entry: `COCC(=O)Nc1ccc2c(c1)OC[C@H](C)N(C(=O)c1cnccn1)C[C@@H](C)[C@H](OC)CN(C)C2=O`
Resp: false (0)

Req: What call does the record list for `C[C@@H]1CCCCO[C@@H](CN(C)S(=O)(=O)c2cccs2)[C@@H](C)CN([C@@H](C)CO)C(=O)c2cc(NS(=O)(=O)c3ccc(F)cc3)ccc2O1` ?
Resp: false (0)

Req: Each compound tested received a call. Report the one for `COc1ccc(C(=NN)c2ccc(OC)cc2)cc1` .
Resp: false (0)

Req: Test call for this compound, please: `C[C@@H]1CN([C@@H](C)CO)S(=O)(=O)c2ccc(-c3cccc(C(=O)N(C)C)c3)cc2O[C@@H]1CN(C)C`
Resp: false (0)

Req: // param item: `CCCN(C)C[C@H]1Oc2cc(C#CCC3CCCC3)ccc2S(=O)(=O)N([C@@H](C)CO)C[C@@H]1C` ; yields the recorded call
Resp: false (0)

Req: State the result this test recorded for `COCC#Cc1ccc([C@@H]2[C@@H](CO)N3C(=O)CN(C(=O)C4CCOCC4)C[C@@H]23)cc1` .
Resp: false (0)

Req: What did the test return for `C/C(=N\NC(=O)c1cccc(N2CCCC2=O)c1)c1ccc(N)cc1` ?
Resp: false (0)

Req: Please share the test call associated with `C[C@@H]1CN([C@H](C)CO)S(=O)(=O)c2ccc(C#CCC3CCCC3)cc2O[C@H]1CN(C)C(=O)CC1CC1` .
Resp: false (0)

Req: So what was the verdict on `CO[C@H]1CN(C)C(=O)c2ccc(NC(=O)C3CCC3)cc2OC[C@@H](C)NC[C@H]1C` in this test?
Resp: false (0)

Req: Please indicate how the test categorized `CCC(=O)Nc1ccc2c(c1)C(=O)N(C)C[C@H](OC)[C@H](C)CN(CCC(F)(F)F)[C@H](C)CO2` .
Resp: false (0)

Req: Hi, do you know how `C[C@H](CO)N1C[C@H](C)[C@H](CN(C)Cc2cccc(F)c2)Oc2ncc(C#CCN(C)C)cc2C1=O` came out in this test?
Resp: false (0)

Recorded values, source PubChem BioAssay AID652154.
